# target_or_test_system: proline utilization A (SmPutA) (Sinorhizobium meliloti)
# Construct: gene putA; bifunctional PRODH-GSALDH enzyme, His tag removed
# measurement_notes: X-ray crystal structure ([…] Å); Ki from GSALDH activity inhibition
# Assay type: biochemical
quantity: Ki

compound	target_or_test_system	value_measured
O=C(O)C1CCCNC1 (racemic)	proline utilization A (SmPutA) (Sinorhizobium meliloti)	1500 µM

###

# target_or_test_system: proline utilization A (SmPutA) (Sinorhizobium meliloti, UniProt F7X6I3)
# Construct: gene putA; bifunctional PRODH-GSALDH enzyme, His tag removed
# Sequence (F7X6I3 1-1233): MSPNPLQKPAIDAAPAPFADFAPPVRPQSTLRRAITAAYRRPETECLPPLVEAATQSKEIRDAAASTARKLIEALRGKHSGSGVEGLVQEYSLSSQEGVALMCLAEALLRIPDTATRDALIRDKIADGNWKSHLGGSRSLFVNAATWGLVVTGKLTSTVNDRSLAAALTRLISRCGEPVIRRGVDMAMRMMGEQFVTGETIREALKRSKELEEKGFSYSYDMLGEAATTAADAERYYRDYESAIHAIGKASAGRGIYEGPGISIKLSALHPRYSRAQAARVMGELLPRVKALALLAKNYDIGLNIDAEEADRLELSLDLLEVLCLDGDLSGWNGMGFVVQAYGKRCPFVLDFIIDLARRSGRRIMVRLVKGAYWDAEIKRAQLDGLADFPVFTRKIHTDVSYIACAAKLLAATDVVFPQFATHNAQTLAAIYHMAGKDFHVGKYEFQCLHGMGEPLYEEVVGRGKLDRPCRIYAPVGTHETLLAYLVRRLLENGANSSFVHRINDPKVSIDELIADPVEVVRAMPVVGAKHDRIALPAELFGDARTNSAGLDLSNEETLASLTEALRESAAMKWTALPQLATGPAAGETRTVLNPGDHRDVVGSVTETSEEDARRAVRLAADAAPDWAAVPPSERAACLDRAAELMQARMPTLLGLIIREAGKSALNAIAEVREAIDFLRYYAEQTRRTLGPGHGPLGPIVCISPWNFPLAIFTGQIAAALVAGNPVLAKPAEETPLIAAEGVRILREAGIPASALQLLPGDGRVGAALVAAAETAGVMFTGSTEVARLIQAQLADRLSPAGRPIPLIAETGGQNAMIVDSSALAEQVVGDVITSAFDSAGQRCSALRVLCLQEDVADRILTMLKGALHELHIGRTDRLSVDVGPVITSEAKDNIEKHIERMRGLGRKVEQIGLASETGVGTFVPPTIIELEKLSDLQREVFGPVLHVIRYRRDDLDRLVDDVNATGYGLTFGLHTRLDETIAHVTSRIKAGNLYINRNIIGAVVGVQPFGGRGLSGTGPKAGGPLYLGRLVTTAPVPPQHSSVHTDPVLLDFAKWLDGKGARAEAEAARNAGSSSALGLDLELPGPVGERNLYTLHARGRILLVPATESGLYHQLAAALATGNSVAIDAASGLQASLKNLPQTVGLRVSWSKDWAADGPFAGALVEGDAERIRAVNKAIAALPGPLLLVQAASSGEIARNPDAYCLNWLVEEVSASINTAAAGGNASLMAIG
# measurement_notes: X-ray crystal structure ([…] Å); Ki from GSALDH activity inhibition
# Format: biochemical
pKi: −log10 of the molar value.

compound	pKi
O=C(O)c1cccc2c1OCCO2 [compound 7, 7]	3.49

Provenance of the data: paper PMC11596857
